B1: Triacylglycerol hydrolase DDHD2, residues 389 to 447; numbered along this chain, O94830 (parent)
chain: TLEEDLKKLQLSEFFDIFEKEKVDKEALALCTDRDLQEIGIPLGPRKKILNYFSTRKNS

variants of: B1; assay: abundance fitness (aPCA) (normalised: wild type 0, dead -1); higher = more abundant; growth selection in yeast, the domain comes from the species named; conditions: Homo sapiens
Is abundance fitness at least -0.4? Then satisfied. If not, not satisfied.

Quick check: does "K20C" have abundance fitness greater than or equal to -0.4?
not satisfied

Quick check: does "E21N" have abundance fitness greater than or equal to -0.4?
satisfied

Quick check: does "L30Y" have abundance fitness greater than or equal to -0.4?
satisfied

Quick check: does "L2D" have abundance fitness greater than or equal to -0.4?
not satisfied

Quick check: does "A27C" have abundance fitness greater than or equal to -0.4?
satisfied

Quick check: does "L6M" have abundance fitness greater than or equal to -0.4?
satisfied

Quick check: does "E38Y" have abundance fitness greater than or equal to -0.4?
not satisfied

Quick check: does "I41P" have abundance fitness greater than or equal to -0.4?
not satisfied

Quick check: does "L30G" have abundance fitness greater than or equal to -0.4?
satisfied

Quick check: does "G44H" have abundance fitness greater than or equal to -0.4?
satisfied

Quick check: does "R34W" have abundance fitness greater than or equal to -0.4?
satisfied

Quick check: does "E3T" have abundance fitness greater than or equal to -0.4?
not satisfied

Quick check: does "N51V" have abundance fitness greater than or equal to -0.4?
not satisfied

Quick check: does "V23I" have abundance fitness greater than or equal to -0.4?
satisfied

Quick check: does "S54E" have abundance fitness greater than or equal to -0.4?
satisfied

Quick check: does "F18S" have abundance fitness greater than or equal to -0.4?
not satisfied

Quick check: does "G40H" have abundance fitness greater than or equal to -0.4?
not satisfied

Quick check: does "S54I" have abundance fitness greater than or equal to -0.4?
satisfied

Quick check: does "D16I" have abundance fitness greater than or equal to -0.4?
satisfied

Quick check: does "F15V" have abundance fitness greater than or equal to -0.4?
satisfied

Quick check: does "V23F" have abundance fitness greater than or equal to -0.4?
satisfied

Quick check: does "T55C" have abundance fitness greater than or equal to -0.4?
satisfied

Quick check: does "N51G" have abundance fitness greater than or equal to -0.4?
satisfied

Quick check: does "L43G" have abundance fitness greater than or equal to -0.4?
satisfied

Quick check: does "S59C" have abundance fitness greater than or equal to -0.4?
satisfied

Quick check: does "Q10E" have abundance fitness greater than or equal to -0.4?
satisfied

Quick check: does "I41G" have abundance fitness greater than or equal to -0.4?
satisfied

Quick check: does "K47Y" have abundance fitness greater than or equal to -0.4?
not satisfied

Quick check: does "K48E" have abundance fitness greater than or equal to -0.4?
satisfied

Quick check: does "N51I" have abundance fitness greater than or equal to -0.4?
not satisfied

Quick check: does "K47Q" have abundance fitness greater than or equal to -0.4?
satisfied

Quick check: does "S59N" have abundance fitness greater than or equal to -0.4?
not satisfied

Quick check: does "N58H" have abundance fitness greater than or equal to -0.4?
satisfied

Quick check: does "A27I" have abundance fitness greater than or equal to -0.4?
satisfied

Quick check: does "A29S" have abundance fitness greater than or equal to -0.4?
satisfied

Quick check: does "I49V" have abundance fitness greater than or equal to -0.4?
satisfied

Quick check: does "P45D" have abundance fitness greater than or equal to -0.4?
satisfied

Quick check: does "T32H" have abundance fitness greater than or equal to -0.4?
satisfied

Quick check: does "S59V" have abundance fitness greater than or equal to -0.4?
satisfied

Quick check: does "F14M" have abundance fitness greater than or equal to -0.4?
satisfied

Quick check: does "E19S" have abundance fitness greater than or equal to -0.4?
satisfied

Quick check: does "Q10F" have abundance fitness greater than or equal to -0.4?
not satisfied
